# EXPERIMENTAL SYSTEM: human Nav1.8/b3 (Homo sapiens)
# Construct: expressed in transfected cells; host or cells: CHO
# Sequence (Q9Y5Y9 whole entry): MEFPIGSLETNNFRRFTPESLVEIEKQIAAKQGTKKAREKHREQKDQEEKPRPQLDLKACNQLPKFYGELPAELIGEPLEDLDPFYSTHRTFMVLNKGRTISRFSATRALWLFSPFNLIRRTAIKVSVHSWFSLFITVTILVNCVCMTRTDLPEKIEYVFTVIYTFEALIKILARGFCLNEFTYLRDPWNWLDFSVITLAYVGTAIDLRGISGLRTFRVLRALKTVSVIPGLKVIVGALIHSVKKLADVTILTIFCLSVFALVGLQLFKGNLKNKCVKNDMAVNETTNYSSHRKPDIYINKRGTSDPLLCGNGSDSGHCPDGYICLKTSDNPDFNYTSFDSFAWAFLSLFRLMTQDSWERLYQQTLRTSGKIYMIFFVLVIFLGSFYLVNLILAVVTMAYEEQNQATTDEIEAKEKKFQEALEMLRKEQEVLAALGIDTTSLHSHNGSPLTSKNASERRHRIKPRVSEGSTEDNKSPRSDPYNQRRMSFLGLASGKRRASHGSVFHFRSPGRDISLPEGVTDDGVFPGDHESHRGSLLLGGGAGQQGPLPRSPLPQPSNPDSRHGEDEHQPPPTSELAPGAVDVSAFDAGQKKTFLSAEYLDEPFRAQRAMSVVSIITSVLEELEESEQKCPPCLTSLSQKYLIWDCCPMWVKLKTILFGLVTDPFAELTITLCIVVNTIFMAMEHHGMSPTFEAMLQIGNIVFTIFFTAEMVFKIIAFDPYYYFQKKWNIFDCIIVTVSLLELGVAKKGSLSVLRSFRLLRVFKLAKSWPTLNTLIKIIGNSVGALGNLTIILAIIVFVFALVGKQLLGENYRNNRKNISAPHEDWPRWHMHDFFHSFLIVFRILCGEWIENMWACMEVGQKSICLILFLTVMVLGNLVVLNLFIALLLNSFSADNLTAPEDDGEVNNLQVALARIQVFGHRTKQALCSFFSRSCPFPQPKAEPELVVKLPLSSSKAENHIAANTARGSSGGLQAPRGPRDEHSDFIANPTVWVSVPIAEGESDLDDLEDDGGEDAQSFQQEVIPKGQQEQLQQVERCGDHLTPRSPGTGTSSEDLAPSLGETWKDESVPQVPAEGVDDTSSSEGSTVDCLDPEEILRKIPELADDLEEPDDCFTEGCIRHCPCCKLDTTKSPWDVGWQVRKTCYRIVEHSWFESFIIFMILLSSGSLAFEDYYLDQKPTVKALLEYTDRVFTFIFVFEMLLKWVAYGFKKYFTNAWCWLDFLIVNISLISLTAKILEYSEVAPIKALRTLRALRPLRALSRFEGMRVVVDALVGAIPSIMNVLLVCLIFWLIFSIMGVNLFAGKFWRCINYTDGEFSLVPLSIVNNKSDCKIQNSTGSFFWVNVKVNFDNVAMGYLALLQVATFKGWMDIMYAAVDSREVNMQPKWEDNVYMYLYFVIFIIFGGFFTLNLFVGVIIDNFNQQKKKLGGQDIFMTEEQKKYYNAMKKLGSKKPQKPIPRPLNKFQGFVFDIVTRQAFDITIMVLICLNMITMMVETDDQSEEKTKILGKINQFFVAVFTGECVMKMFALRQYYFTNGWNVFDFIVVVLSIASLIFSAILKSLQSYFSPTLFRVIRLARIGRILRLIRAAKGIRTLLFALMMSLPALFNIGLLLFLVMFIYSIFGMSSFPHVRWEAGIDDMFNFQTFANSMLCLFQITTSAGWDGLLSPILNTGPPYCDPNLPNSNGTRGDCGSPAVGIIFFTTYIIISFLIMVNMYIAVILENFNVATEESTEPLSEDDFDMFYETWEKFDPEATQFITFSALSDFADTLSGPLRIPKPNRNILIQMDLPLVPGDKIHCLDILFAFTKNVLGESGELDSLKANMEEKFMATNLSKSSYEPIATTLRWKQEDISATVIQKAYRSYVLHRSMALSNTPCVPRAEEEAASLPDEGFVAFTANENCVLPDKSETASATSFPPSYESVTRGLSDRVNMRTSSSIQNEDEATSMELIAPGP
# Sequence (Q9NY72 23-215 partner): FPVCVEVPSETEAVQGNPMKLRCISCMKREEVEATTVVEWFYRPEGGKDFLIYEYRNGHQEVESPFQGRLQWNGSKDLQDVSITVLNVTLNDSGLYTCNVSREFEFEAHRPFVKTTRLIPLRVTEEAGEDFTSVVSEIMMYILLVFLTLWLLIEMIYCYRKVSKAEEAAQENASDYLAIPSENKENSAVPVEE
# MEASUREMENT DESCRIPTION: Compound Profiling Human NaV1.8/β3 Cell Line—SyncroPatch384PE Assay (automated patch clamp, stably transfected CHO cells)
# Format: cell-based
# SETUP CONDITIONS: P1 (IC50, resting state block), P1 measurement, resting state block; Nav1.8/b3 CHO cells, holding potential −120 mV; third set of compounds
Field: IC50. Provide a value for each of the compounds that follow.

Query string: Could you share what IC50 was measured for Cc1nc(F)ccc1Oc1ncc(C(F)(F)F)c(C)c1C(=O)Nc1cccc([S@@](C)(=O)=NCCN)c1 [Example 43C] , tested on human Nav1.8/b3 (Homo sapiens)?
Result string: < 5 nM

Query string: Could you share what IC50 was measured for COc1cc(C#N)ccc1Oc1ncc(Br)c(C)c1C(=O)Nc1cccc([S@](C)(=N)=O)c1 [Example 24C] , tested on human Nav1.8/b3 (Homo sapiens)?
Result string: < 5 nM

Query string: Could you share what IC50 was measured for Cc1nc(F)ccc1Oc1c(C(F)(F)F)ncc(F)c1C(=O)Nc1cccc([S@](C)(=N)=O)c1 [Example 36C] , tested on human Nav1.8/b3 (Homo sapiens)?
Result string: > 200 nM

Query string: Could you share what IC50 was measured for Cc1nc(F)ccc1Oc1ncc(C(F)(F)F)c(C)c1C(=O)Nc1ccc(F)c([S@@](C)(=N)=O)c1 (single isomer, unassigned) [Example 14C] , tested on human Nav1.8/b3 (Homo sapiens)?
Result string: 5 to 50 nM

Query string: Could you share what IC50 was measured for Cc1nc(F)ccc1Oc1ncc(-c2ccc(F)c(F)c2)c(C)c1C(=O)Nc1cccc(S(C)(=N)=N)c1 [Example 124C] , tested on human Nav1.8/b3 (Homo sapiens)?
Result string: 5 to 50 nM

Query string: Could you share what IC50 was measured for Cc1nc(F)ccc1Oc1nc(C2CC2)c(C(F)(F)F)c(C)c1C(=O)Nc1ccnc([S@](C)(=N)=O)c1 [Example 106C] , tested on human Nav1.8/b3 (Homo sapiens)?
Result string: < 5 nM

Query string: Could you share what IC50 was measured for Cc1nc(F)ccc1Oc1nc2ccccc2cc1C(=O)Nc1cccc([S@](C)(=N)=O)c1 [Example 97C] , tested on human Nav1.8/b3 (Homo sapiens)?
Result string: 50 to 100 nM

Query string: Could you share what IC50 was measured for COc1cc(C#N)ccc1Oc1ncc(-c2ccc(C(F)F)cc2)c(C)c1C(=O)Nc1cccc([S@](C)(=N)=O)c1 [Example 23C] , tested on human Nav1.8/b3 (Homo sapiens)?
Result string: < 5 nM

Query string: Could you share what IC50 was measured for Cc1nc(F)ccc1Oc1nnc(-c2ccc3c(c2)OCCO3)c(C)c1C(=O)Nc1cccc([S@](C)(=N)=O)c1 , tested on human Nav1.8/b3 (Homo sapiens)?
Result string: < 5 nM

Query string: Could you share what IC50 was measured for Cc1nc(F)ccc1Oc1nc(C(F)(F)F)c(Cl)c(C)c1C(=O)Nc1ccc(F)c([S@@](C)(=N)=O)c1 [Example 94C] , tested on human Nav1.8/b3 (Homo sapiens)?
Result string: 5 to 50 nM

Query string: Could you share what IC50 was measured for CCCc1cnc(Oc2ccc(F)nc2C)c(C(=O)Nc2cccc([S@](C)(=N)=O)c2)c1C [Example 103C] , tested on human Nav1.8/b3 (Homo sapiens)?
Result string: 50 to 100 nM

Query string: Could you share what IC50 was measured for Cc1nc(F)ccc1Oc1ncc(C(F)(F)F)c(C)c1C(=O)Nc1cccc([S@@](C)(=O)=NCC(C)(C)N)c1 [Example 90C] , tested on human Nav1.8/b3 (Homo sapiens)?
Result string: < 5 nM

Query string: Could you share what IC50 was measured for COc1cc(C#N)ccc1Oc1ncc(Cl)c(C)c1C(=O)Nc1cccc([S@](C)(=N)=O)c1 [Example 26C] , tested on human Nav1.8/b3 (Homo sapiens)?
Result string: 5 to 50 nM

Query string: Could you share what IC50 was measured for Cc1nc(F)ccc1Oc1ncc(C2CC2)c(C)c1C(=O)Nc1cccc([S@](C)(=N)=O)c1 [Example 12C] , tested on human Nav1.8/b3 (Homo sapiens)?
Result string: 50 to 100 nM

Query string: Could you share what IC50 was measured for Cc1nc(F)ccc1Oc1ncc(C(F)(F)F)c(C)c1C(=O)Nc1cccc(S(N)(=O)=O)c1 , tested on human Nav1.8/b3 (Homo sapiens)?
Result string: < 5 nM

Query string: Could you share what IC50 was measured for Cc1nc(F)ccc1Oc1nnc(C(F)(F)F)c(C)c1C(=O)Nc1cccc([S@](C)(=N)=O)c1 , tested on human Nav1.8/b3 (Homo sapiens)?
Result string: 50 to 100 nM

Query string: Could you share what IC50 was measured for Cc1cc(C#N)ccc1Oc1cc(C(F)(F)F)nnc1C(=O)Nc1cccc(S(C)(=N)=O)c1 (centres unmarked) [Example 39C] , tested on human Nav1.8/b3 (Homo sapiens)?
Result string: > 200 nM

Query string: Could you share what IC50 was measured for Cc1nc(F)ccc1Oc1ncc(C(F)(F)F)c(C)c1C(=O)Nc1ccnc([S@@](C)(=N)=O)c1 (single isomer, unassigned) [Example 10C] , tested on human Nav1.8/b3 (Homo sapiens)?
Result string: 5 to 50 nM

Query string: Could you share what IC50 was measured for COc1cc(C#N)ccc1Oc1ncc(-c2ccc(C(F)F)cc2)c(C)c1C(=O)Nc1ccnc([S@](C)(=N)=O)c1 [Example 17C] , tested on human Nav1.8/b3 (Homo sapiens)?
Result string: > 200 nM

Query string: Could you share what IC50 was measured for Cc1cc(C#N)ccc1Oc1cc(C(F)(F)F)nnc1C(=O)Nc1cccc(S(C)(=O)=O)c1 [Example 29C] , tested on human Nav1.8/b3 (Homo sapiens)?
Result string: > 200 nM
